- System: 653999-131-R-J2-PDC complex spheroids, growth inhibition;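 also: spheroids exposed to the agents for seven days before the readout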
- ASSAY_SUMMARY: Anticancer human tumor 653999-131-R-J2-PDC patient-derived lung adenocarcinoma cell line growth inhibition [RAS]
- CONDITION: curve of first compound; second compound 0.3 µM
METRIC_NAME: IC50

{"columns": ["COMPOUND", "REPORTED"],
 "data": [
  ["CC1(C)CCC(Nc2ncc(C(F)(F)F)c(-c3c[nH]c4c(P(C)(C)=O)c(C#N)ccc34)n2)CN1 (centres undefined) + CCn1c(-c2cc(N3CCN(C)CC3)cnc2C(C)OC)c2c3cc(ccc31)-c1csc(n1)CC(NC(=O)C1CC1C)C(=O)N1CCCC(N1)C(=O)OCC(C)(C)C2", "< 0.949 nM"],
  ["NC1c2ccccc2OC12CCN(c1cnc3c(N4CCCc5ncccc54)n[nH]c3n1)CC2 (centres undefined) + CCn1c(-c2cc(N3CCN(C)CC3)cnc2C(C)OC)c2c3cc(ccc31)-c1csc(n1)CC(NC(=O)C1CC1C)C(=O)N1CCCC(N1)C(=O)OCC(C)(C)C2", "< 31.6 nM"],
  ["CCc1c2c(nc3ccc(O)cc13)-c1cc3c(c(=O)n1C2)COC(=O)[C@]3(O)CC + CCn1c(-c2cccnc2C(C)OC)c2c3cc(ccc31)N1CCOC(CC(NC(=O)C(C(C)C)N(C)C(=O)C3(F)CCN(C(=O)C#CC(C)(C)N(C)C)CC3)C(=O)N3CCCC(N3)C(=O)OCC(C)(C)C2)C1", "5.63 nM"],
  ["CCc1c2c(nc3ccc(O)cc13)-c1cc3c(c(=O)n1C2)COC(=O)[C@]3(O)CC + CCn1c(-c2cc(N3CCN(C)CC3)cnc2C(C)OC)c2c3cc(ccc31)-c1csc(n1)CC(NC(=O)C1CC1C)C(=O)N1CCCC(N1)C(=O)OCC(C)(C)C2", "< 0.949 nM"]
]}
